- system-tested: JAK1 (JH2 domain) (Homo sapiens (Human))
- Sequence (P23458 583-855): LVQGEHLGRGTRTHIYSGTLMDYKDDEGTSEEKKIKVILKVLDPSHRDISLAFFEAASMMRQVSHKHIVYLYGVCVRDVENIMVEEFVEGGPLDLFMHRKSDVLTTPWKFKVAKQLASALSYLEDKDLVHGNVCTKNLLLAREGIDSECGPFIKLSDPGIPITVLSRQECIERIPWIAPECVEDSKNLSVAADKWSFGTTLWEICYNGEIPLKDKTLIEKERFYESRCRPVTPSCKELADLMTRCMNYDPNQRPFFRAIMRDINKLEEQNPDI
- assay-notes: JAK1 JH2 domain binding assay (KINOMEscan)
- study-conditions: KINOMEscan; read-out: JAK1 (JH2 domain) binding Kd
pKd: −log10 of the molar value.
readout: pKd

Previously resolved entries follow.
In [3]: df
Out[3]:
                               query_smiles  result
0  CC(C)(O)c1ccc(Nc2cc(Nc3ncccc3S(C)(=O)=O)c(C(=O)C3CC3)cn2)nc1F  > 7.00
1  [2H]C([2H])([2H])NC(=O)c1nnc(NC(=O)N2CC(C)(C)C2)cc1Nc1cccc(-c2ncn(C)n2)c1OC  > 7.00

Pending compound:
(Q) Need pKd, item `[2H]C([2H])([2H])CC(=O)c1cnc(Nc2cccc(C#N)n2)cc1Nc1nccc(-c2ncn(C([2H])([2H])[2H])n2)c1OC`
(A) > 7.00

====

- assay-notes: Pharmacokinetic study in Sprague Dawley rats
- Assay type: in vivo
- study-conditions: rat, plasma, Oral (5 mg/kg)
Could you please report measured half-life for the items listed next?
Give bare numbers, in h.

The examples below pair each entry with its known result.
In [3]: df
Out[3]:
                               query_smiles    readout  readout_number
0  [2H]C([2H])([2H])CC(=O)c1cnc(Nc2cccc(C#N)n2)cc1Nc1cccc(-c2ncn(C([2H])([2H])[2H])n2)c1OC  half-life            2.85
1  [2H]C([2H])([2H])CC(=O)c1cnc(Nc2ccc(C(C)(C)O)c(F)n2)cc1Nc1cccc(-c2ncn(C([2H])([2H])[2H])n2)c1OC  half-life            1.29
2  [2H]C([2H])([2H])CC(=O)c1cnc(Nc2cccc(C#N)n2)cc1Nc1nccc(-c2ncn(C([2H])([2H])[2H])n2)c1OC  half-life            1.66
3  [2H]C([2H])([2H])CC(=O)c1cnc(NC(=O)C2CC2)cc1Nc1nccc(-c2ncn(C([2H])([2H])[2H])n2)c1OC  half-life            4.22
4  [2H]C([2H])([2H])CC(=O)c1cnc(NC(=O)C2CC2)cc1Nc1cccc(-c2ncn(C([2H])([2H])[2H])n2)c1OC  half-life            2.37

Now look at this one.
(Q) Suppose we examine the compound `[2H]C([2H])([2H])CC(=O)c1cnc(Nc2ccc(C(C)(C)O)c(F)n2)cc1Nc1nccc(-c2ncn(C([2H])([2H])[2H])n2)c1OC` ; what half-life value has been reported?
(A) 1.14

====

So I've got a bunch of compounds here, and I need their bioavailability values.
- assay-notes: Pharmacokinetic study in C57BL/6 mice
- Format: in vivo
- study-conditions: male, mouse, plasma, Oral (10 mg/kg)
Numbers only, in %.

>>> df
                               query_smiles  readout_number
0  [2H]C([2H])([2H])CC(=O)c1cnc(NC(=O)C2CC2)cc1Nc1nccc(-c2ncn(C([2H])([2H])[2H])n2)c1OC            85.1

// for each compound in input: emit bioavailability
1. [2H]C([2H])([2H])CC(=O)c1cnc(NC(=O)C2CC2)cc1Nc1cccc(-c2ncn(C([2H])([2H])[2H])n2)c1OC
2. [2H]C([2H])([2H])CC(=O)c1cnc(Nc2ccc(C(C)(C)O)c(F)n2)cc1Nc1cccc(-c2ncn(C([2H])([2H])[2H])n2)c1OC

(A)
1. 41.7
2. 66.6
